Hey, just so you know, these numbers are from the supplement of paper PMC11986102.

# Test system: Pseudomonas aeruginosa PA14
# test-method-notes: OD600 after 10 h growth (baseline-subtracted); higher = more bacterial growth (less inhibition)
# condition-summary: 0.1 µg/mL
measurement-name: OD600 after 10 h growth

1) CC1=C(C)C(=O)C(CCCCCCCCCC[P+](c2ccccc2)(c2ccccc2)c2ccccc2)=CC1=O [Visomitin] | 0.762
2) Cc1c(Cl)c(C)[n+]([O-])c(Cl)c1-c1noc(-c2cc(O)c(O)c([N+](=O)[O-])c2)n1 [Opicapone] | 0.743
3) COc1cc2c(cc1Cc1cccc(Cl)c1F)c(=O)c(C(=O)O)cn2[C@H](CO)C(C)C [Elvitegravir] | 0.752
4) Cc1cn([C@H]2C[C@H](O)[C@@H](CO)O2)c(=O)[nH]c1=O [Thymidine] | 0.756
5) CC(=O)N[C@H](Cc1ccc2ccccc2c1)C(=O)N[C@H](Cc1ccc(Cl)cc1)C(=O)N[C@H](Cc1cccnc1)C(=O)N[C@@H](CO)C(=O)N[C@@H](Cc1ccc(O)cc1)C(=O)N[C@H](CCCNC(N)=O)C(=O)N[C@@H](CC(C)C)C(=O)N[C@@H](CCCNC(=N)N)C(=O)N1CCC[C@H]1C(=O)N[C@H](C)C(N)=O [Cetrorelix] | 0.741
6) CC(C)(C)c1ccc(C(=O)CCCN2CCC(OC(c3ccccc3)c3ccccc3)CC2)cc1 [Ebastine] | 0.752
